# System: Bacillus subtilis
# test: cleaved RNA product abundance (RNA/gDNA barcode ratio) relative to median wild-type variant (ratio to wild type); higher = more accumulation of the downstream cleavage product
# condition: experiment (reporter, strain, medium): exp 4a: truncated aprE reporter, strain BJT201 with 2% xylose (RNase J1 expressed); cleavage site: cggR-gapA (positions -7 to +36 mutated)
property-name: cleaved RNA product abundance
Give bare numbers.

Known cleaved RNA product abundance results, listed for orientation:
ACAGACGAAGGAGCCGCAAAGAAGTTATTAAGGGATGAATAATCCCTGAACATAAATATCTCTCACTTATTTAAA : 0.242
ACAGACGAAGGAGCCGCAAAGTAGTTATTAAGGTATGAATAATCCCTCAATATAAATATCTCTCACTTATTTAAA : 0.0907

Record cleaved RNA product abundance per entry; entries follow.
1. ACAGACGAAGGAGCCGCAAAGAAGTAATTAAGGGGTGAATAATCCCTCAATATAAATATCTCTCACTTATTTAAA
2. ACAGACGAAGGAGCCGCAAGGAAGTTATTAAGGGACGAATAATCCCTCAATATAAATATCTCTCACTTATTTAAA
3. ACAGACGAAGGAGCCGCAAAGAAGTTATTAAGTGATGAATAATCCCTCAATAGAAATATCTCTCACTTATTTAAA
4. ACAGACGAAGGAGCCGCAAAGAAGTTAATAAGGGATGAATAACCCCTCAATATAAATATCTCTCACTTATTTAAA
5. ACAGACGAAGGAGCCGCAAAGAAGTTATTAAGAGATGAATAATCCCTCACTATAAATATCTCTCACTTATTTAAA

[0.308, 0.614, 0.0533, 0.192, 0.131]

###

# Tested on: Bacillus subtilis
# test: cleaved RNA product abundance (RNA/gDNA barcode ratio) relative to median wild-type variant (ratio to wild type); higher = more accumulation of the downstream cleavage product
# condition: experiment (reporter, strain, medium): exp 2b: truncated aprE reporter, strain BJT200; cleavage site: cggR-gapA (positions -7 to +36 mutated)
property-name: cleaved RNA product abundance
Numbers only.

As a guide, the following entries are already answered.
ACAGACGAAGGAGCCGCAAAGAAGTTATGAAGGGATGAATAATCCCTAAATATAAATATCTCTCACTTATTTAAA : 0.38
ACAGACGAAGGAGCCGCAAAGAAGTTATTAAGGGATGAATAATCCCTCACTATAAATATCTCTCACTTATTTAAA : 0.215
ACAGACGAAGGAGCCGCAAAGAAGTTATTAAGGGATGAATAATCCCTCAATATAAATATCTCTCCTTATTTAAAG : 0.315
ACAGACGAAGGAGCCGCAATGAAGTTATTAAGGGATGAATATTCCCTCAATATAAATATCTCTCACTTATTTAAA : 0.573
ACAGACGAAGGAGCCGCAAAGAAGTTATTAAGGGATGAATAATTCCTCAAGATAAATATCTCTCACTTATTTAAA : 0.146
ACAGACGAAGGAGCCGCAAAGAAGTTATTTAAGGATGAATAATCCCTCAATATAAATATCTCTCACTTATTTAAA : 0.125
ACAGACGAAGGAGCCGCAAAGAAATTATTAAGGGATGAATAATTCCTCAATATAAATATCTCTCACTTATTTAAA : 0.457
ACAGACGAAGGAGCCGCAAAGAAGTTATTAAGAGATGAATAATCCCTCAACATAAATATCTCTCACTTATTTAAA : 0.111

The following sequences each have a reported value; give each one's cleaved RNA product abundance.
1. ACAGACGAAGGAGCCGCAAAGAAGTTAATAAGGGAAGAATAATCCCTCAATATAAATATCTCTCACTTATTTAAA
2. ACAGACGAAGGAGCCGCAAAGAAGTTATTAGTGGATGAATAATCCCTCAATATAAATATCTCTCACTTATTTAAA
3. ACAGACGAAGGAGCCGCAAAGAAGTTATTAAGGAATTAATAATCCCTCAATATAAATATCTCTCACTTATTTAAA
4. ACAGACGAAGGAGCCGCAAAAAAGTTATTAAGGGATGAATAATCCCTAAATATAAATATCTCTCACTTATTTAAA
5. ACAGACGAAGGAGCCGCAAAGAAGTTATTAAGGGAAGAATATTCCCTCAATATAAATATCTCTCACTTATTTAAA

1: 0.135; 2: 0.295; 3: 0.103; 4: 0.57; 5: 0.797

Take each entry in turn and give its cleaved RNA product abundance.
1. ACAGACGAAGGAGCCGCAAAGAAGTTATTAAGGGAAGAATAATCCCTCAATATAATTATCTCTCACTTATTTAAA
2. ACAGACGAAGGAGCCGCAAAGAAGTTATAAAAGGATAAATAATCCCTCAATATAAATATCTCTCACTTATTTAAA
3. ACAGACGAAGGAGCCGCAAAGAAATTAGTAAGGGATGAATAATCCCTCAATATAAATATCTCTCACTTATTTAAA
4. ACAGACGAAGGAGCCGCAAAGAAGTTATTAAGGAATGAATAATCCCTCAATTTAAATATCTCTCACTTATTTAAA
5. ACAGACGAAGGAGCCGCAAAGAAGTTATTAAGGGATGAATAATCCCTCTATATACATATCTCTCACTTATTTAAA
6. ACAGACGAAGGAGCCGCAAAGAAGTTATTAAGGGATGAATCATGCCTCAATATAAATATCTCTCACTTATTTAAA
7. ACAGACGAAGGAGCCGCAAAGAAGTTATTAAGGGATTAATAATCGCTCAATATAAATATCTCTCACTTATTTAAA
8. ACAGACGAAGGAGCCGCAAAGAAGTTATTAAGTAATGAATAACCCCTCAATATAAATATCTCTCACTTATTTAAA

0.292
0.141
0.339
0.0901
0.248
0.164
0.109
0.084

Where do these numbers come from? They come from the supplement of paper PMC11780869.
